- Tested on: T47D
- assay: NCI tumour cell line growth inhibition, 48 h
Activity calls are given as the source filed them. No stated cut-off is given here; in the data, active = GI50 up to about 1.1 µM and inactive = higher.
propertyMeasured: GI50

Form field: reported GI50 of N#Cc1nc(CCc2nc(C#N)c(N)o2)oc1N
> 10 µM (inactive)

What value of GI50 has been recorded for this entry: COc1cccc2c(Nc3ccc(S(=O)(=O)NC(C)=O)cc3)c3ccc([N+](=O)[O-])cc3nc12
94.4 µM (inactive)

Recorded GI50 for Cc1ccc(O)c(C(c2cc(C)ccc2O)c2cc([N+](=O)[O-])ccc2O)c1 , please?
16.9 µM (inactive)

Tell me the measured GI50 of NCCNc1nc(N2CCCC2)c2nc(Cl)c(NCc3ccccc3)nc2n1 , please.
1.66 µM (inactive)

Suppose we examine the molecule Cc1ccc(C(=O)c2[nH]c(Nc3ccc(Cl)cc3)c(C(=S)Nc3ccccc3)c2N)cc1 ; what GI50 value has been reported?
15.5 µM (inactive)

###

- System: UO-31
- assay: NCI tumour cell line growth inhibition, 48 h
Active and inactive are the calls of the source. Cut-off read from the data, not from the text of the source: active = GI50 up to about 1.1 µM and inactive = higher.
propertyMeasured: GI50

Given the compound CN1[C@@H]2CCCC[C@H]2N(C)P1(=O)C(O)/C=C/c1ccccc1 (some centres undefined) , what is its reported GI50?
> 100 µM (inactive)

Suppose we examine the compound O/N=C(\c1nc2ccc(Cl)cc2nc1O)C(O)c1ccc(Cl)cc1Cl (centres undefined) ; what GI50 value has been reported?
> 100 µM (inactive)

Returns the measured GI50 for the input compound. Input: CCOP1(=O)C=C(Sc2ccc([N+](=O)[O-])cc2[N+](=O)[O-])C(C)(C)O1 (centres undefined)
14.9 µM (inactive)

Field request: GI50 | item: COC(=O)[C@@H]1c2cc3c(c(O)c2[C@@H](OC)C[C@@]1(C)O)C(=O)c1c(O)cc2c(c1C3=O)OC1O[C@@]2(C)[C@H](O)[C@@H](N(C)C)[C@@H]1O
1.14 µM (inactive)

I am curious: what GI50 value has been reported for COC(=O)N/N=C(/Cc1occc(=O)c1O)C(=O)Nc1ccc([N+](=O)[O-])cc1[N+](=O)[O-] ?
> 100 µM (inactive)

So what's the measured GI50 for this one? CC(C)(C)OC(=O)NCCCCCCC(=O)Cc1ccccc1
> 100 µM (inactive)

So what's the measured GI50 for this one? CCCCCCCCC[C@@H]1C[C@H](O)[C@H](Cc2ccccc2)N1C(=O)OC(C)(C)C
14.3 µM (inactive)

Please look up its GI50: CCCN(CCC)C1CC(n2cc(C)c(=O)[nH]c2=O)OC1CO (centres undefined)
> 100 µM (inactive)

Reported GI50 for CC(=O)N(CCN1C(=O)c2ccccc2C1=O)CCN1C(=O)c2ccccc2C1=O : what is it?
> 100 µM (inactive)

###

- Test system: IGROV-1
- assay: NCI tumour cell line growth inhibition, 48 h
Activity calls are given as the source filed them. Cut-off read from the data, not from the text of the source: active = GI50 up to about 1.1 µM and inactive = higher.
propertyMeasured: GI50

Can you share its GI50? I mean this compound: c1cnc(N2CCN(Cc3c[nH]c4ccccc34)CC2)nc1
> 100 µM (inactive)

Suppose we examine the compound O=C1OC(c2ccccc2)C2CC3CC4(CCC3CN12)OCCO4 (stereo unspecified) ; what GI50 value has been reported?
> 100 µM (inactive)

Data request, read-out GI50, for NN/C(=N\S(=O)(=O)c1cc(S(=O)(=O)c2ccccc2)cs1)Nc1ccc(Cl)cc1
25.9 µM (inactive)

Request the reported GI50 associated with COC(=O)CN(CC(O)C(NC(C)=O)C(O)C=O)C(=O)OCc1ccccc1 (stereo unspecified)
> 100 µM (inactive)

Please look up its GI50: CC1(C)COC(C2(C)C(=O)C=C(c3ccccc3)c3ccccc32)=N1 (stereo unspecified)
47.5 µM (inactive)

GET /values?readout=GI50&item= CC1(C)CC(=O)c2c(nc3ccc4ccccc4c3c2-c2ccc(NC(=O)CCC(=O)Nc3ccc(-c4c5c(nc6ccc7ccccc7c46)CC(C)(C)CC5=O)cc3)cc2)C1
> 100 µM (inactive)

Need GI50 of Cc1ccc(N2C(=O)CC(=O)N(NC(=O)C(C)Oc3ccccc3C)C2=S)cc1 (stereo unspecified) , thanks.
> 100 µM (inactive)

So what does the record say about GI50 for Cc1cccc(/C(Br)=C2/OC(=O)c3ccccc32)c1 ?
> 100 µM (inactive)

Look at this compound and give its reported GI50. C=CCN1CCN([C@H](c2ccc(C(=O)N(CC)CC)cc2)c2cccc(OC)c2)CC1
> 25 µM (inactive)

Please look up its GI50: C/C(CC(=O)Nc1ccc(Cl)c(Cl)c1)=N/NC(=O)C[n+]1ccccc1
> 100 µM (inactive)

// returns reported GI50 for input CC(C)=CC(=O)O[C@@H]1CC(C)(C)CC2C3=CCC4[C@]56CC[C@](O)(OC5)C(C)(C)C6CC[C@@]4(C)C3(C)CC[C@]21C(=O)O (stereo partly specified)
31.8 µM (inactive)

Returns the measured GI50 for the input compound. Input: CCOc1ccc2c(c1)c(=O)c1c(NCCN(CC)CC)ccc3nnn2c31
9.64 µM (inactive)

Returns the measured GI50 for the input compound. Input: COc1cc(/C=N/c2nncs2)ccc1O
> 100 µM (inactive)

Any idea what GI50 was measured for COc1cc2c(cc1OC)-c1c(cc(OC)c(OC)c1OC)C2=O ?
> 100 µM (inactive)

Given the compound COc1cc(/C=C2/CCS(=O)(=O)c3ccc(C)cc3C2=O)cc(OC)c1OC , what is its reported GI50?
4.06 µM (inactive)

Could you tell me which GI50 is on file for CC(C)[Si](OC1=C(c2ccccc2)C(NC(=O)/C=C/c2ccc([N+](=O)[O-])cc2)CCC1)(C(C)C)C(C)C (stereo unspecified) ?
> 100 µM (inactive)

Given the compound c1ccc(CC(Nc2cccnc2)c2ccccc2)cc1 (stereo unspecified) , what is its reported GI50?
31 µM (inactive)

// GI50 lookup, key: CCC(=O)N1C(=O)OCC1C(C)C (stereo unspecified)
> 100 µM (inactive)

For O=c1c2cccnc2n2n1Cc1ccccc1C2 , what is its reported GI50?
> 100 µM (inactive)

GET /values?readout=GI50&item= Oc1cccc2cc(Br)cnc12
5.09 µM (inactive)

# GI50 lookup, item Nc1ccn(C=C=CCO)c(=O)n1
> 100 µM (inactive)
